system-tested: Group 3 secretory phospholipase A2 (Homo sapiens) (UniProt Q9NZ20)
Sequence (Q9NZ20 whole entry, looked up): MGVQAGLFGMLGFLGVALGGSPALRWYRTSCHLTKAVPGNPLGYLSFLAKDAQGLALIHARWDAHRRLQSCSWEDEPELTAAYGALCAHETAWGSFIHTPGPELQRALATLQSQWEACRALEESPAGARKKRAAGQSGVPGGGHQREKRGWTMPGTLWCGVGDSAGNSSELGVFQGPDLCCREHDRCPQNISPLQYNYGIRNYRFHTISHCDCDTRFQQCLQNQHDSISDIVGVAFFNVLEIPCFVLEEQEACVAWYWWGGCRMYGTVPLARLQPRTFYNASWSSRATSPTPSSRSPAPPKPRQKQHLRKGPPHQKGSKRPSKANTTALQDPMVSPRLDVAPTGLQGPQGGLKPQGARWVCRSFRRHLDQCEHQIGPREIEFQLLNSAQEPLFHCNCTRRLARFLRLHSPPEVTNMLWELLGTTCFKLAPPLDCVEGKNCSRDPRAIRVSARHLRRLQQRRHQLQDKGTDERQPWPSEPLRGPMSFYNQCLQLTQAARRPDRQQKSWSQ
assay-comment: human group III sPLA2 inhibitors, primary screen, biochemical, QFRET, BODIPY PC-A2 liposome substrate (AID 743126);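 also: 0% = median of test compound wells and 100% = no enzyme DMSO wells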
protocol-conditions: QFRET BODIPY PC-A2 liposome hydrolysis, fluorescence; at 12.2 µM; stronger effect = higher value
Hit rate of the full screen: of about 370,000 compounds, about 2,100 (0.57%) were called active. The full list was thinned out, with actives kept by preference.
observable: inhibition (%)
Dear colleague, please return just the value in %, with no unit written.

Q: Hi! What's the reported inhibition for `CCC[C@H]1C(=O)CC[C@@]23CCCN2C(=O)CCC[C@@H]13` on Group 3 secretory phospholipase A2 (Homo sapiens) (UniProt Q9NZ20)?
A: 9.16

Q: Hi! What's the reported inhibition for `C#CCNC(=O)C[C@H]1C[C@@]2(C(=O)OC)C(=C[C@H](C(C)C)O[C@@H]2C2CC2)N(Cc2ccco2)C1=O` on Group 3 secretory phospholipase A2 (Homo sapiens) (UniProt Q9NZ20)?
A: 3.7

Q: Hi! What's the reported inhibition for Cc1ccccc1CN1CCCCC(NC(=O)c2cccc(C#N)c2)C1=O (stereo unspecified) on Group 3 secretory phospholipase A2 (Homo sapiens) (UniProt Q9NZ20)?
A: 14

Q: Hi! What's the reported inhibition for `COC(=O)[C@@]12CCCCC3=C1N(CCC3)C(=O)[C@H]2CC(=O)NCc1cccc2ccccc12` on Group 3 secretory phospholipase A2 (Homo sapiens) (UniProt Q9NZ20)?
A: -12

Q: Hi! What's the reported inhibition for `O=C(/C=C/c1c(Cl)cccc1Cl)NCc1ccccc1` on Group 3 secretory phospholipase A2 (Homo sapiens) (UniProt Q9NZ20)?
A: 20

Q: Hi! What's the reported inhibition for `C=CCN1[C@H](CC(C)C)COc2cccc(N3CCCC3)c2S1(=O)=O` on Group 3 secretory phospholipase A2 (Homo sapiens) (UniProt Q9NZ20)?
A: 10

Q: Hi! What's the reported inhibition for `O=C(NNc1ccccn1)c1ccc(Cl)nc1` on Group 3 secretory phospholipase A2 (Homo sapiens) (UniProt Q9NZ20)?
A: 21.1

Q: Hi! What's the reported inhibition for COc1cccc2c1OCC1COc3c(c(=O)n(C)c(=O)n3C)C21 (stereo unspecified) on Group 3 secretory phospholipase A2 (Homo sapiens) (UniProt Q9NZ20)?
A: 8

Q: Hi! What's the reported inhibition for COc1ccc(C2Nc3ccccc3C(=O)N2Cc2cccs2)cc1COc1c(C)cccc1C (stereo unspecified) on Group 3 secretory phospholipase A2 (Homo sapiens) (UniProt Q9NZ20)?
A: 4.57

Q: Hi! What's the reported inhibition for `CCCNC(=O)Nc1ccc2c(c1)C(=O)N(C)[C@H]1CC[C@H](CC(=O)NCC3CCCCC3)O[C@@H]1CO2` on Group 3 secretory phospholipase A2 (Homo sapiens) (UniProt Q9NZ20)?
A: -24.2

Q: Hi! What's the reported inhibition for COC(=O)C1CN(Cc2ccc(F)cc2)CCS(=O)(=O)N1Cc1ccc(Cl)cc1 (stereo unspecified) on Group 3 secretory phospholipase A2 (Homo sapiens) (UniProt Q9NZ20)?
A: 0.13

Q: Hi! What's the reported inhibition for `COC(=O)c1ccccc1-n1cc(COC(=O)NCCc2ccccc2)nn1` on Group 3 secretory phospholipase A2 (Homo sapiens) (UniProt Q9NZ20)?
A: 6.94
